All figures here come from PubChem BioAssay (NCI).

Protocol description: NCI Yeast Anticancer Drug Screen. Data for the rad18 strain (AID 177)
Reported conditions: S. cerevisiae rad18 mutant growth inhibition; at 11.0 µM; active compounds read high
The panel holds about 79,000 compounds, 15% with a hit somewhere; the sample as a whole holds those more often.
Threshold rule: growth inhibition greater than or equal to 20% is 1.0; below that, 0.0.

{"Molecule": "Cc1ccc(S(=O)(=O)Nc2cccc3cccnc23)cc1", "Category label": 1.0}
{"Molecule": "[N-]=[N+]=NC1(c2ccccc2)C(=O)Nc2ccccc2C1=O (stereo unspecified)", "Category label": 0.0}
{"Molecule": "O=C(NOC(=O)c1ccc([N+](=O)[O-])cc1)c1ccc(Cl)cc1", "Category label": 1.0}
{"Molecule": "O=[N+]([O-])c1cc(Cl)ccc1S(=O)(=O)c1ccc(Cl)cc1[N+](=O)[O-]", "Category label": 1.0}
{"Molecule": "COc1ccccc1/C=C\\C(=O)C1COCN1 (stereo unspecified)", "Category label": 0.0}
{"Molecule": "O=CC1(F)CC1(c1ccccc1)c1ccccc1 (stereo unspecified)", "Category label": 0.0}
